Below, each entry is listed alongside its reported melting point.
Structures can show the parent of a compound that is named as a salt.

Please review the following examples before continuing.
INSERT INTO results (molecule, result) VALUES
  ('COc1cc2c(cc1OC)CN(CCc1ccc(NC(=O)c3c(OC)c(OC)cc4ccccc34)cc1)CC2 (as salt: hydrochloride)', '245 to 248 °C'),
  ('COc1ccc2nccc(C(=O)Nc3ccc(CCN4CCc5cc(OC)c(OC)cc5C4)cc3)c2c1 (as salt: hydrochloride)', '228 to 230 °C'),
  ('COc1cc2c(cc1OC)CN(CCc1ccc(NC(=O)c3c(OC)cccc3OC)cc1)CC2 (as salt: hydrochloride)', '212 to 214 °C');

The measured melting point associated with COc1cc2c(cc1OC)CN(CCc1ccc(NC(=O)c3c(OC)ccc4ccccc34)cc1)CC2 (as salt: hydrochloride) reads 239 to 241 °C

###

Tested on: BCRP (Homo sapiens, UniProt Q9UNQ0)
Construct: expressed in transfected cells; host or cells: MDCK-BCRP (Madin-Darby Canine Kidney cells, gift of Prof. P. Borst, NKI-AVL)
Sequence (Q9UNQ0 1-655): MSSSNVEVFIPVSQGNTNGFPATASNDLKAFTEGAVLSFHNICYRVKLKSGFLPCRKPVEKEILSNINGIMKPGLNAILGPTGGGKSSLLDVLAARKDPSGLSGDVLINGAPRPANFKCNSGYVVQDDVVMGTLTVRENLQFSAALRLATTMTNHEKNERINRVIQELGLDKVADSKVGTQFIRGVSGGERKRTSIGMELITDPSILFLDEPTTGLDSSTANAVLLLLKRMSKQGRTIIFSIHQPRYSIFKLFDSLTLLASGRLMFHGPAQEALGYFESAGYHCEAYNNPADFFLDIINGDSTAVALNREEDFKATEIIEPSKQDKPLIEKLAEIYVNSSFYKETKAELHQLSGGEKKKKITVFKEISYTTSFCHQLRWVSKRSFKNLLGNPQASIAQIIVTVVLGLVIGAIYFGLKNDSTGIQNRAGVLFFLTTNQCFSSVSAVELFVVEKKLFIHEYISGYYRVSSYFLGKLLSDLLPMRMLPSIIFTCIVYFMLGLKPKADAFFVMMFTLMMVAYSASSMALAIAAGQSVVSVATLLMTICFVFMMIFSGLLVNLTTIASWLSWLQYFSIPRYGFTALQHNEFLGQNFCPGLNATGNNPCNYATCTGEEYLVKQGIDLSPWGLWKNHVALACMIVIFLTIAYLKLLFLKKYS
Test details: Inhibition of Hoechst 33342 efflux in MDCK-BCRP cells
Type: cell-based
Condition context: at a concentration of 100 μM, MDCK-BCRP cells
Listed here: items and their measured BCRP, percentage of the effect.
Please respond with the number in %^d and leave the unit unwritten.

The compound COc1cc2c(cc1OC)CN(CCc1ccc(OC(=O)c3c(OC)c(OC)cc4ccccc34)cc1)CC2 [Compound 21] showed BCRP, percentage of the effect equal to 43

Value of measured BCRP, percentage of the effect for the entry COc1cc2c(cc1OC)CN(CCc1ccc(OC(=O)c3ccccc3OC)cc1)CC2 [Compound 15] : 47

Form: compound = COc1cc2c(cc1OC)CN(CCc1ccc(OC(=O)c3cccc4ccccc34)cc1)CC2 [Compound 19] ; BCRP, percentage of the effect = 35

// BCRP, percentage of the effect lookup, compound = COc1cc2c(cc1OC)CN(CCc1ccc(OC(=O)c3cccc(OC)c3OC)cc1)CC2 [Compound 18] , result: 44

# BCRP, percentage of the effect (compound: COc1cc2c(cc1OC)CN(CCc1ccc(NC(=O)c3cccc(OC)c3OC)cc1)CC2 [Compound 5] ) is 41

###

Test details: Apparent permeability (Papp) determination (BA/AB) in Caco-2 cell monolayer
Assay type: in vitro ADME
Condition context: human, Caco-2 monolayer
Parameter: efflux ratio at 120 min, 100 µM

INSERT INTO assay_data (molecule, parameter, result) VALUES
  ('COc1ccc(C(=O)Oc2ccc(CCN3CCc4cc(OC)c(OC)cc4C3)cc2)cn1', 'efflux ratio at 120 min, 100 µM', 5.6);

// recorded efflux ratio at 120 min, 100 µM for COc1cc2c(cc1OC)CN(CCc1ccc(NC(=O)c3ccccc3OC)cc1)CC2 : 5.9

The molecule identified as COc1cc2c(cc1OC)CN(CCc1ccc(OC(=O)c3ccccc3OC)cc1)CC2 registered its efflux ratio at 120 min, 100 µM at 5.4

The value of efflux ratio at 120 min, 100 µM measured for the molecule COc1ccc(C(=O)Oc2ccc(CCN3CCc4cc(OC)c(OC)cc4C3)cc2)c(OC)c1 turned out to be 7.1

Item: COc1cc2c(cc1OC)CN(CCc1ccc(OC(=O)c3c(OC)cccc3OC)cc1)CC2 | efflux ratio at 120 min, 100 µM: 6.2

# molecule COc1cncc(C(=O)Nc2ccc(CCN3CCc4cc(OC)c(OC)cc4C3)cc2)n1 ; its efflux ratio at 120 min, 100 µM = 6

// COc1cc2c(cc1OC)CN(CCc1ccc(NC(=O)c3cccnc3)cc1)CC2 : efflux ratio at 120 min, 100 µM value = 7.3

efflux ratio at 120 min, 100 µM for COc1cc2c(cc1OC)CN(CCc1ccc(OC(=O)c3c(OC)c(OC)cc4ccccc34)cc1)CC2 is 5.4

Documented efflux ratio at 120 min, 100 µM of COc1cc2c(cc1OC)CN(CCc1ccc(NC(=O)c3cnccn3)cc1)CC2 : 4.9

// efflux ratio at 120 min, 100 µM value for COc1cncc(C(=O)Oc2ccc(CCN3CCc4cc(OC)c(OC)cc4C3)cc2)n1 : 4.7

Reported efflux ratio at 120 min, 100 µM for COc1ccc2nccc(C(=O)Oc3ccc(CCN4CCc5cc(OC)c(OC)cc5C4)cc3)c2c1 was 8.7

Measured efflux ratio at 120 min, 100 µM, COc1cc2c(cc1OC)CN(CCc1ccc(OC(=O)c3cccc(OC)c3OC)cc1)CC2 : 4.1

Reported efflux ratio at 120 min, 100 µM ( COc1cc2c(cc1OC)CN(CCc1ccc(OC(=O)c3cnccn3)cc1)CC2 ) = 4.9

// efflux ratio at 120 min, 100 µM lookup, molecule = COc1ccc(C(=O)Nc2ccc(CCN3CCc4cc(OC)c(OC)cc4C3)cc2)c(OC)c1 , result: 7.4

// efflux ratio at 120 min, 100 µM lookup, molecule = COc1cc2c(cc1OC)CN(CCc1ccc(NC(=O)c3ccc(OC)c(OC)c3OC)cc1)CC2 , result: 7

The molecule COc1cc2c(cc1OC)CN(CCc1ccc(NC(=O)c3c(OC)ccc4ccccc34)cc1)CC2 showed efflux ratio at 120 min, 100 µM equal to 11.8

Entry COc1ccc2nccc(C(=O)Nc3ccc(CCN4CCc5cc(OC)c(OC)cc5C4)cc3)c2c1 — recorded efflux ratio at 120 min, 100 µM = 6.5

get_value(item= COc1ccc(C(=O)Nc2ccc(CCN3CCc4cc(OC)c(OC)cc4C3)cc2)cn1 , readout=efflux ratio at 120 min, 100 µM) returns 7.5

Reported efflux ratio at 120 min, 100 µM for COc1cc2c(cc1OC)CN(CCc1ccc(OC(=O)c3ccc(OC)c(OC)c3OC)cc1)CC2 was 9

Lab book: efflux ratio at 120 min, 100 µM of COc1cc2c(cc1OC)CN(CCc1ccc(NC(=O)c3c(OC)cccc3OC)cc1)CC2 noted as 5.5

response.value for COc1cc2c(cc1OC)CN(CCc1ccc(NC(=O)c3cc(OC)c(OC)cc3NC(=O)c3cnc4ccccc4c3)cc1)CC2 [tariquidar, reference compound] (field: efflux ratio at 120 min, 100 µM) = > 20

# efflux ratio at 120 min, 100 µM of COc1cc2c(cc1OC)CN(CCc1ccc(OC(=O)c3c(OC)ccc4ccccc34)cc1)CC2 = 4.8

GET /value?item= COc1cc2c(cc1OC)CN(CCc1ccc(NC(=O)c3cccc4ccccc34)cc1)CC2 &field=efflux ratio at 120 min, 100 µM returns 3.6

So, COc1cc2c(cc1OC)CN(CCc1ccc(OC(=O)c3cccnc3)cc1)CC2 ? Its efflux ratio at 120 min, 100 µM was 5

efflux ratio at 120 min, 100 µM for COc1cc2c(cc1OC)CN(CCc1ccc(OC(=O)c3cccc4ccccc34)cc1)CC2 is 5.1

The value of efflux ratio at 120 min, 100 µM measured for the molecule COc1cc2c(cc1OC)CN(CCc1ccc(NC(=O)c3c(OC)c(OC)cc4ccccc34)cc1)CC2 turned out to be 5.5

Record COc1cc2c(cc1OC)CN(CCc1ccc(NC(=O)c3cccc(OC)c3OC)cc1)CC2 . Reported efflux ratio at 120 min, 100 µM: 5

###

Tested on: P-gp (Homo sapiens)
Sequence (P08183 whole entry): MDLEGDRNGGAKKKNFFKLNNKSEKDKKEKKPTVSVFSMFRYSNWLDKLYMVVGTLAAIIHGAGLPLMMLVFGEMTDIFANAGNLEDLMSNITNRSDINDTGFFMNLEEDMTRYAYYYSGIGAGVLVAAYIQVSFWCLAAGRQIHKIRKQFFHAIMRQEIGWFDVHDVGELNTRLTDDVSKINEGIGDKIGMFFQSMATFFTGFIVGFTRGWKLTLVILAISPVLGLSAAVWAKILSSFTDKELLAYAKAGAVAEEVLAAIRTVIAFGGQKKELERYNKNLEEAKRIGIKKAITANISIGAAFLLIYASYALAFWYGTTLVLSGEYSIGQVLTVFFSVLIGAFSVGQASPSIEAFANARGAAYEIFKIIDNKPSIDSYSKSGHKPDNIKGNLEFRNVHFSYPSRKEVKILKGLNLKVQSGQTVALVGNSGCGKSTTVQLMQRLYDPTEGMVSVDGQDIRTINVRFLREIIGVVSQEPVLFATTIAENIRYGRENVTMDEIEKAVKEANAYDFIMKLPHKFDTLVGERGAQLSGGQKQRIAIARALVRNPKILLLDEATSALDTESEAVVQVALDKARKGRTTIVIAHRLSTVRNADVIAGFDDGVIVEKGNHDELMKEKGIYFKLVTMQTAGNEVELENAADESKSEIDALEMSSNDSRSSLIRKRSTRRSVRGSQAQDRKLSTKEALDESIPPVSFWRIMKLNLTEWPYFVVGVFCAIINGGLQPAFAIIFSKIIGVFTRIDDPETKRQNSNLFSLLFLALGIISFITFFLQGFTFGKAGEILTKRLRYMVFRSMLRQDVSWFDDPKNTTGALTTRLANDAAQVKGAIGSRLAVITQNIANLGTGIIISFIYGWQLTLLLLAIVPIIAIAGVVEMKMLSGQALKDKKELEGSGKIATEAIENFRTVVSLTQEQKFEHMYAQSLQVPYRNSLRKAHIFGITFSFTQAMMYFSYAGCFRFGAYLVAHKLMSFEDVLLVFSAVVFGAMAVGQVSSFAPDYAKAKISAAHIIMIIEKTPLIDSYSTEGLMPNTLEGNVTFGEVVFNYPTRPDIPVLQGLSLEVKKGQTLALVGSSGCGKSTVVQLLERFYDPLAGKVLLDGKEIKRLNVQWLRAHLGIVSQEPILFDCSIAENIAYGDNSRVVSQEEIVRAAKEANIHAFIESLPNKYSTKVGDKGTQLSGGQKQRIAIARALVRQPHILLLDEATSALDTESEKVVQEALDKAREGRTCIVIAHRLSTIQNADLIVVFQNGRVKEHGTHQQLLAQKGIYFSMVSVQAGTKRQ
Test details: Inhibition of Calcein-AM transport in MDCK-MDR1 cells
Condition context: Calcein-AM, MDCK-MDR1 cells; mean ± SEM of two experiments
Recorded pEC50, one value per entry.
Note: pEC50 values are expressed as the negative base-10 logarithm of concentration in M.

Example entries begin here.
INSERT INTO measurements (molecule, parameter, readout_number) VALUES
  ('COc1cc2c(cc1OC)CN(CCc1ccc(NC(=O)c3c(OC)ccc4ccccc34)cc1)CC2 [Compound 7]', 'pEC50', 6.92),
  ('COc1cc2c(cc1OC)CN(CCc1ccc(OC(=O)c3cccc4ccccc34)cc1)CC2 [Compound 19]', 'pEC50', 6.08),
  ('COc1cc2c(cc1OC)CN(CCc1ccc(OC(=O)c3c(OC)ccc4ccccc34)cc1)CC2 [Compound 20]', 'pEC50', 6.96),
  ('COc1ccc2nccc(C(=O)Nc3ccc(CCN4CCc5cc(OC)c(OC)cc5C4)cc3)c2c1 [Compound 13]', 'pEC50', 6.18),
  ('COc1ccc(C(=O)Oc2ccc(CCN3CCc4cc(OC)c(OC)cc4C3)cc2)c(OC)c1 [Compound 16]', 'pEC50', 7.00);

Note to self: pEC50 recorded for COc1cc2c(cc1OC)CN(CCc1ccc(NC(=O)c3cccc4ccccc34)cc1)CC2 [Compound 6] was 6.17

Memo: COc1cc2c(cc1OC)CN(CCc1ccc(OC(=O)c3c(OC)cccc3OC)cc1)CC2 [Compound 17] , reported pEC50: 6.82

Source listed as paper PMC7178819.
